From: paper PMC11168086

- Test system: A2780 (ovarian cancer) cells
- assay-explanation: MTT antiproliferative assay, A2780
- Type: cell-based, human
- experimental-context: A2780
readout-name: Lipophilic efficiency (LipE = pIC50 – logP)
One number for each entry.

The examples below pair each entry with its known result.
{"molecule": "COc1ccc(COC[C@@](O)(CNCc2ccccc2)[C@@H]2CC[C@@H](C)C[C@H]2OCc2ccc(OC)cc2)cc1 [Compound 50a]", "observed-value": "−0.88"}
{"molecule": "COc1ccc(CNC[C@](O)(COCc2ccc(OC)cc2)[C@@H]2CC[C@@H](C)C[C@H]2OCc2ccc(OC)cc2)cc1 [Compound 52a]", "observed-value": "−0.40"}
{"molecule": "COc1ccccc1CNC[C@@](C)(O)[C@@H]1CC[C@@H](C)C[C@H]1OCc1ccccc1 [Compound 12a]", "observed-value": "−0.26"}

Turning now to a further record.
Input: Can you share its Lipophilic efficiency (LipE = pIC50 – logP)? I mean this molecule: C[C@@H]1CC[C@@H]([C@](O)(CNCc2ccc(F)cc2)COCc2ccc(F)cc2)[C@H](OCc2ccc(F)cc2)C1 [Compound 45a]
Output: −1.12

###

For each entry below, report its Lipophilic efficiency (LipE = pIC50 – logP) value.
- System: HeLa (cervical cancers) cells
- assay-explanation: MTT antiproliferative assay, HeLa
- Assay type: cell-based, human
Numbers only.

I need Lipophilic efficiency (LipE = pIC50 – logP) for every entry listed below, if you could help.
1. C[C@@H]1CC[C@@H]([C@@](O)(CNCc2ccccc2)COCc2ccc(F)cc2)[C@H](OCc2ccc(F)cc2)C1 [Compound 44b]
2. C[C@@H]1CC[C@@H]([C@@](C)(O)Cn2cnc3ccccc32)[C@H](OCc2ccccc2)C1 [Compound 15b]
3. COc1ccc(COC[C@@](O)(CNCc2ccc(F)cc2)[C@@H]2CC[C@@H](C)C[C@H]2OCc2ccc(OC)cc2)cc1 [Compound 51a]
4. C[C@@H]1CC[C@@H]([C@](O)(CNCc2ccccc2)COCc2ccc(F)cc2)[C@H](OCc2ccc(F)cc2)C1 [Compound 44a]

Output:
−1.12
0.06
−1.08
−0.78

###

- Tested on: MDA-MB-231 (breast cancer) cells
- assay-explanation: MTT antiproliferative assay, MDA-MB-231
- Assay type: cell-based, human
- experimental-context: MDA-MB-231
We label by threshold. Values of Lipophilic efficiency (LipE = pIC50 – logP) strictly beneath -1 are 1. Values of -1 and up are -1.

Please review the following examples before continuing.
{"compound": "C[C@@H]1CC[C@@H]([C@@](O)(CNCc2cccc3ccccc23)COCc2ccccc2)[C@H](OCc2ccccc2)C1 [Compound 41b]", "class-label": 1}
{"compound": "COc1ccc(CNC[C@@](C)(O)[C@@H]2CC[C@@H](C)C[C@H]2OCc2ccccc2)cc1 [Compound 10a]", "class-label": -1}
{"compound": "COc1ccc(CNC[C@](O)(COCc2ccc(F)cc2)[C@@H]2CC[C@@H](C)C[C@H]2OCc2ccc(F)cc2)cc1 [Compound 46a]", "class-label": 1}
{"compound": "C[C@@H]1CC[C@@H]([C@@](O)(CNCc2ccccc2)COCc2ccc(F)cc2)[C@H](OCc2ccc(F)cc2)C1 [Compound 44b]", "class-label": 1}
{"compound": "COc1ccc(CNC[C@](O)(COCc2ccc(OC)cc2)[C@@H]2CC[C@@H](C)C[C@H]2OCc2ccc(OC)cc2)cc1 [Compound 52a]", "class-label": -1}

Input: Lab log: compare recorded Lipophilic efficiency (LipE = pIC50 – logP) with -1; is it strictly lower for C[C@@H]1CC[C@@H]([C@](O)(CNCc2ccccc2)COCc2ccc(F)cc2)[C@H](OCc2ccc(F)cc2)C1 [Compound 44a] ?
Output: -1

Input: Field entry: C[C@@H]1CC[C@@H]([C@](O)(CNCc2ccccc2)COCc2ccccc2)[C@H](OCc2ccccc2)C1 [Compound 34a]
Output: 1

Input: Follow-up entry: C[C@@H]1CC[C@@H]([C@](C)(O)CNCc2cccc(F)c2)[C@H](OCc2ccccc2)C1
Output: -1

Input: Same read-out for C[C@@H]1CC[C@@H]([C@](O)(CNCc2cccc3ccccc23)COCc2ccccc2)[C@H](OCc2ccccc2)C1 [Compound 41a] ?
Output: 1

Input: Quick one: C[C@@H]1CC[C@@H]([C@@](O)(CNCc2ccccc2)COCc2ccccc2)[C@H](OCc2ccccc2)C1 [Compound 34b]
Output: 1

Input: Consider next the compound C[C@@H]1CC[C@@H]([C@](C)(O)CNCc2ccccc2)[C@H](OCc2ccccc2)C1 in the same way.
Output: -1

###

- assay-explanation: Kinetic aqueous solubility
- Assay type: physicochemical
- experimental-context: PBS buffer, pH 7.4, aqueous buffer, kinetic from dmso stock
Outcome: yes for solubility kinetic at 2 h of at least 30 µM; no for anything lower.

Here are 8 compounds together with their reported answers.
{"compound": "C[C@@H]1CC[C@@H]([C@](O)(CNCc2ccccc2)COCc2ccccc2)[C@H](OCc2ccccc2)C1 [Compound 34a]", "class-label": "no"}
{"compound": "C[C@@H]1CC[C@@H]([C@@](O)(CNCc2ccccc2)COCc2ccccc2)[C@H](OCc2ccccc2)C1 [Compound 34b]", "class-label": "no"}
{"compound": "C[C@@H]1CC[C@@H]([C@@](O)(CNCc2cccc3ccccc23)COCc2ccccc2)[C@H](OCc2ccccc2)C1 [Compound 41b]", "class-label": "no"}
{"compound": "COc1ccc(COC[C@@](O)(CNCc2ccc(F)cc2)[C@@H]2CC[C@@H](C)C[C@H]2OCc2ccc(OC)cc2)cc1 [Compound 51a]", "class-label": "yes"}
{"compound": "C[C@@H]1CC[C@@H]([C@](O)(COCc2ccccc2)Cn2ccnc2)[C@H](OCc2ccccc2)C1 [Compound 42b]", "class-label": "no"}
{"compound": "COc1ccc(CNC[C@](O)(COCc2ccc(F)cc2)[C@@H]2CC[C@@H](C)C[C@H]2OCc2ccc(F)cc2)cc1 [Compound 46a]", "class-label": "yes"}
{"compound": "COc1ccc(CNC[C@@](C)(O)[C@@H]2CC[C@@H](C)C[C@H]2OCc2ccccc2)cc1 [Compound 10a]", "class-label": "no"}
{"compound": "C[C@@H]1CC[C@@H]([C@](C)(O)CNCc2ccc(F)cc2)[C@H](OCc2ccccc2)C1 [Compound 7a]", "class-label": "no"}

Input: Quick check, solubility kinetic at 2 h >= 30 µM? C[C@@H]1CC[C@@H]([C@](C)(O)Cn2cnc3ccccc32)[C@H](OCc2ccccc2)C1 [Compound 15a]
Output: yes

Input: And for COc1ccccc1CNC[C@@](C)(O)[C@@H]1CC[C@@H](C)C[C@H]1OCc1ccccc1 [Compound 12a] ?
Output: yes

Input: And C[C@@H]1CC[C@@H]([C@](C)(O)CNCc2cccc3ccccc23)[C@H](OCc2ccccc2)C1 [Compound 13a] ?
Output: no

Input: Entry to check: C=C(C)[C@@H]1CC[C@@H](C)C[C@H]1OCc1ccc(F)cc1 [Compound 2b]
Output: yes

###

- Test system: A2780 (ovarian cancer) cells
- assay-explanation: MTT antiproliferative assay, A2780
- Assay type: cell-based, human
- experimental-context: A2780
readout-name: Lipophilic efficiency (LipE = pIC50 – logP)
One number for each entry.

{"compound": "COc1ccc(CNC[C@](O)(COCc2ccc(F)cc2)[C@@H]2CC[C@@H](C)C[C@H]2OCc2ccc(F)cc2)cc1 [Compound 46a]", "observed-value": "−1.12"}
{"compound": "C[C@@H]1CC[C@@H]([C@@](O)(CNCc2cccc3ccccc23)COCc2ccccc2)[C@H](OCc2ccccc2)C1 [Compound 41b]", "observed-value": "−2.48"}

Please give Lipophilic efficiency (LipE = pIC50 – logP), item by item, for the list that follows.
1. C[C@@H]1CC[C@@H]([C@](O)(CNCc2ccccc2)COCc2ccc(F)cc2)[C@H](OCc2ccc(F)cc2)C1 [Compound 44a]
2. C[C@@H]1CC[C@@H]([C@@](O)(CNCc2ccccc2)COCc2ccccc2)[C@H](OCc2ccccc2)C1 [Compound 34b]

Output:
1. −1.00
2. −1.26

###

- assay-explanation: Intestinal-specific PAMPA
- Type: in vitro ADME
- experimental-context: pH 6.5
Task for the reader: assign each of the following molecules its reported Papp at 4 h, 500 μM.
One number for each entry, in ×10⁻⁶ cm/s.

{"molecule": "C=C(C)[C@@H]1CC[C@@H](C)C[C@H]1OCc1ccc(F)cc1", "readout-unit": "×10⁻⁶ cm/s", "Papp at 4 h, 500 μM": 50.7}
{"molecule": "COc1ccccc1CNC[C@@](C)(O)[C@@H]1CC[C@@H](C)C[C@H]1OCc1ccccc1 [Compound 12a]", "readout-unit": "×10⁻⁶ cm/s", "Papp at 4 h, 500 μM": 49.2}
{"molecule": "C[C@@H]1CC[C@@H]([C@](O)(CNCc2ccc(F)cc2)COCc2ccc(F)cc2)[C@H](OCc2ccc(F)cc2)C1 [Compound 45a]", "readout-unit": "×10⁻⁶ cm/s", "Papp at 4 h, 500 μM": 33.3}
{"molecule": "C[C@@H]1CC[C@@H]([C@@](C)(O)Cn2cnc3ccccc32)[C@H](OCc2ccccc2)C1 [Compound 15b]", "readout-unit": "×10⁻⁶ cm/s", "Papp at 4 h, 500 μM": 26.3}
{"molecule": "COc1ccc(CNC[C@@](C)(O)[C@@H]2CC[C@@H](C)C[C@H]2OCc2ccccc2)cc1 [Compound 10a]", "readout-unit": "×10⁻⁶ cm/s", "Papp at 4 h, 500 μM": 20.6}

Count: 6. Required value per item: Papp at 4 h, 500 μM.
1. C[C@@H]1CC[C@@H]([C@](C)(O)CNCc2cccc(F)c2)[C@H](OCc2ccccc2)C1
2. COc1cccc(CNC[C@@](C)(O)[C@@H]2CC[C@@H](C)C[C@H]2OCc2ccccc2)c1 [Compound 11a]
3. COc1ccc(COC[C@@](O)(CNCc2ccccc2)[C@@H]2CC[C@@H](C)C[C@H]2OCc2ccc(OC)cc2)cc1 [Compound 50a]
4. C[C@@H]1CC[C@@H]([C@](C)(O)Cn2cnc3ccccc32)[C@H](OCc2ccccc2)C1 [Compound 15a]
5. C[C@@H]1CC[C@@H]([C@](O)(CNCc2ccccc2)COCc2ccc(F)cc2)[C@H](OCc2ccc(F)cc2)C1 [Compound 44a]
6. COc1ccc(CNC[C@](O)(COCc2ccc(F)cc2)[C@@H]2CC[C@@H](C)C[C@H]2OCc2ccc(F)cc2)cc1 [Compound 46a]

Output:
[9.8, 1.8, 32.4, 39.3, 28.8, 29.5]
